system: SR; experiment: NCI tumour cell line growth inhibition, 48 h
Calls of active or inactive are those of the source. No stated cut-off is given here; in the data, active = GI50 up to about 1.1 µM and inactive = higher.
Returns: one label drawn from y = active, n = inactive

Q: Dear colleague, could you share the recorded outcome for O=C1C2CCCCC2C(=O)N1n1c(Cc2ccc(Cl)cc2)n[nH]c1=O (stereo not drawn) when you have a moment?
Result: n

Q: Dear colleague, could you share the recorded outcome for COc1cc(/C=C2\C(=O)N(c3cccc(NC(C)=O)c3)C(c3ccccc3)S2(=O)=O)cc(OC)c1OC (stereo not drawn) when you have a moment?
Result: n

Q: Dear colleague, could you share the recorded outcome for COC(=O)c1ccc(CN2CCc3c([nH]c4ccccc34)C2CO)o1 (stereo not drawn) when you have a moment?
Result: n

Q: Dear colleague, could you share the recorded outcome for CCOC(=O)c1c(N)sc2c1C(C(=O)OCC)CCC2 (stereo not drawn) when you have a moment?
Result: n

Q: Dear colleague, could you share the recorded outcome for N#Cc1c(-c2ccccc2)cc(-c2ccccc2)n(C2OC(CO)C(O)C(O)C2O)c1=O (stereo not drawn) when you have a moment?
Result: n

Q: Dear colleague, could you share the recorded outcome for `CN(C)CCNC(=O)c1ccc(Cl)c2c(Nc3ccc(S(N)(=O)=O)cc3)c3ccccc3nc12` when you have a moment?
Result: y

Q: Dear colleague, could you share the recorded outcome for COC(=O)[C@@]12OC[C@]34C([C@@H](O)C1O)[C@@]1(C)CC(=O)C(OC(=O)CC(C)C(F)(F)F)=C(C)C1C[C@H]3OC(=O)[C@H](O)[C@H]42 (stereo partly drawn) when you have a moment?
Result: n

Q: Dear colleague, could you share the recorded outcome for `CCOC(=O)Nc1cc2ccccc2c(/N=N/c2ccccc2)c1O` when you have a moment?
Result: n

Q: Dear colleague, could you share the recorded outcome for c1cncc(C2c3[nH]c4ccccc4c3CCN2CCN2CCCCC2)c1 (stereo not drawn) when you have a moment?
Result: n

Q: Dear colleague, could you share the recorded outcome for CON(C)C(=O)C1CCCO1 (stereo not drawn) when you have a moment?
Result: n

Q: Dear colleague, could you share the recorded outcome for `COc1cc2c([C@@H](OC(=O)c3ccccc3)c3ccc4c(c3)OCO4)nccc2c(OC)c1OC` when you have a moment?
Result: n

Q: Dear colleague, could you share the recorded outcome for CCOC(=O)CCC(NC(=O)OCc1ccccc1)C(=O)NC(CCC(=O)OCC)C(=O)NC(CCC(=O)OCC)C(=O)NC(CCC(=O)OCC)C(=O)NC(CCC(=O)OCC)C(=O)OCC (stereo not drawn) when you have a moment?
Result: n

Q: Dear colleague, could you share the recorded outcome for `O=C1C=C(c2[nH]c3ccccc3c2C2=CC(=O)c3ccccc3C2=O)C(=O)c2ccccc21` when you have a moment?
Result: n
